- STUDY TARGET: Y56F-rPepT1 (Oryctolagus cuniculus, UniProt P36836, Y56F)
- Construct: expressed in transfected cells; host or cells: Xenopus laevis oocytes injected with cRNA
- MEASUREMENT DESCRIPTION: Competition of [3H]-D-Phe-L-Gln uptake into Xenopus oocytes, Ki
- Assay type: cell-based, rabbit
- PARTICULARS: pHout 5.5; inhibition of 0.4 μM [3H]-D-Phe-L-Gln uptake; n = 4
- Method: rPepT1 constructs were linearised with XbaI (New England Biolabs, UK) and cRNA generated by in vitro transcription (T7 mMessage mMachine, Ambion, Cambridgeshire, UK). As a control non-injected oocytes were also incubated in uptake medium with D-Phe-L-Gln as above.
Where a SMILES comes first, the peptide text is derived from it.
Please go through the items and note down their pKi.
// pKi here means minus log10 of the molar concentration (mol/L)

Please indicate pKi recorded for NC(Cc1ccccc1)C(=O)NC(Cc1ccc(O)cc1)C(=O)O (stereo not drawn) [Phe-Tyr] (H-Phe-Tyr-OH; configuration not given here)
6.07

Return the recorded pKi value; entry: NC(=O)[C@H](Cc1ccc(O)cc1)NC(=O)[C@@H](N)Cc1ccccc1 [Phe-Tyr-NH2] (H-Phe-Tyr-NH2)
4.14

###

- STUDY TARGET: wild-type rPepT1 (Oryctolagus cuniculus)
- Construct: expressed in transfected cells; host or cells: Xenopus laevis oocytes injected with cRNA
- Sequence (P36836 1-707): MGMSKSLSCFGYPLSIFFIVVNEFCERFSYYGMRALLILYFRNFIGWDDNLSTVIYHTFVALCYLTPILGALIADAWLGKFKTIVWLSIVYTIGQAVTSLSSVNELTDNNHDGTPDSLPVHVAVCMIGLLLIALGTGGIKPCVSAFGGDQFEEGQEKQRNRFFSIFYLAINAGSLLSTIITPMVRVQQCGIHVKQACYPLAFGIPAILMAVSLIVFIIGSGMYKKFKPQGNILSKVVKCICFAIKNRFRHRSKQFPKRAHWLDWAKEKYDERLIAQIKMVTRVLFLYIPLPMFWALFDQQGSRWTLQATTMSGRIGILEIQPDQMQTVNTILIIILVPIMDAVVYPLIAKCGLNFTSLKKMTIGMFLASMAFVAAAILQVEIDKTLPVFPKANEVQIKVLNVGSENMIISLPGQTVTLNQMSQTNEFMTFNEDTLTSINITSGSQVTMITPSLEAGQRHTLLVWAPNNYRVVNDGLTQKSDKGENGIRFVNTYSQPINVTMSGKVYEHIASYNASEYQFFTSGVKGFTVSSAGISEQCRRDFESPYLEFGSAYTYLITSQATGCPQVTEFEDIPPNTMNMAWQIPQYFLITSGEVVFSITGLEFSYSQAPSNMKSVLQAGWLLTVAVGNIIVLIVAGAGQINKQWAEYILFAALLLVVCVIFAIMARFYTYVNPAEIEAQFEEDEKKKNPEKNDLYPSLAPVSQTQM
- MEASUREMENT DESCRIPTION: Competition of [3H]-D-Phe-L-Gln uptake into Xenopus oocytes, Ki by method of Deves and Boyd
- Assay type: cell-based, rabbit
- PARTICULARS: pHout 7.4; against 0.4 μM [3H]-D-Phe-L-Gln uptake
Where a SMILES comes first, the peptide text is derived from it.
METRIC NAME: Ki (µM)
Express your answer in µM, writing the number without its unit.

Give me measured Ki, please, for this compound: NCC(=O)N[C@@H](CCC(N)=O)C(=O)O [Gly-L-Gln] (H-Gly-Gln-OH)
110
